target: Alpha-1B adrenergic receptor (Homo sapiens); assay: Activation of human alpha-1B receptor expressed in rat-1 fibroblasts by calcium mobilization of Gq coupled PLC as percent phenylephrine (40 uM) response; assay type: functional
measure name: Max (%)

{"columns": ["chemical smiles", "Max, %"],
 "data": [
  ["c1ccc(-c2cc[nH]n2)c(OCC2=NCCN2)c1", 39]
]}

1: c1coc(-c2ccccc2OCC2=NCCN2)c1
2: c1ccc(-c2ccns2)c(OCC2=NCCN2)c1
Between 1 and 2 , which one shows the larger Max value? # answer = label of selected item
1

###

target: Alpha-1B adrenergic receptor (Homo sapiens, UniProt P35368); experiment: Activation of recombinant human adrenergic, alpha-1B receptor expressed in rat-1 fibroblasts determined via calcium mobilization through Gq coupled PLC pathway
Sequence (P35368 whole entry): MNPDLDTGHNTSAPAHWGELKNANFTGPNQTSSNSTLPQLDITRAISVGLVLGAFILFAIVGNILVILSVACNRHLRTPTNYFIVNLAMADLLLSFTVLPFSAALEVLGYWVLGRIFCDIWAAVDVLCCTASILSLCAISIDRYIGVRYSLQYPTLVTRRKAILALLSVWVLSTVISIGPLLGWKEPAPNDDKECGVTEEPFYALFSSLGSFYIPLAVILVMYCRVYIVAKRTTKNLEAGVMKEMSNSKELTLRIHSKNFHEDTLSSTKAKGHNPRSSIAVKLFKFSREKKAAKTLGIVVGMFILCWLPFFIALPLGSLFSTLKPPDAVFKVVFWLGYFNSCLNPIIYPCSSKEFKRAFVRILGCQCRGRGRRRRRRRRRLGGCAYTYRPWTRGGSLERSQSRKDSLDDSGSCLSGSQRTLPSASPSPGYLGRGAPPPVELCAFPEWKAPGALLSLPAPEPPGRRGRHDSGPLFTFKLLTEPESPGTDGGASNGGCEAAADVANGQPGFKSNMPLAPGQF
pEC50: −log10 of the molar value.
measure name: pEC50

Some solved cases for reference:
{"columns": ["chemical smiles", "target entity", "measure name", "measured"],
 "data": [
  ["c1coc(-c2ccccc2OCC2=NCCN2)c1", "Alpha-1B adrenergic receptor (Homo sapiens, UniProt P35368)", "pEC50", 8.00],
  ["c1ccc(-c2cc[nH]n2)c(OCC2=NCCN2)c1", "Alpha-1B adrenergic receptor (Homo sapiens, UniProt P35368)", "pEC50", 7.10],
  ["c1ccc(-c2ccsc2)c(OCC2=NCCN2)c1", "Alpha-1B adrenergic receptor (Homo sapiens, UniProt P35368)", "pEC50", 7.80]
]}

P: c1ccc(-c2cnccn2)c(OCC2=NCCN2)c1
Q: c1ccc(-c2ccoc2)c(OCC2=NCCN2)c1
R: c1ccc(-c2nccs2)c(OCC2=NCCN2)c1
Exam item: list the entries in increasing order of pEC50. // rank by listing labels in the order requested
P, R, Q

###

Listed here: items and their measured pEC50.
biological target: UniProt:P25100; test: Activation of recombinant human adrenergic, alpha-1D receptor expressed in rat-1 fibroblasts assayed via calcium mobilization through Gq coupled PLC pathway
pEC50: −log10 of the molar value.

{"columns": ["chemical smiles", "measure name", "measured"],
 "data": [
  ["c1ccc(-c2ccccc2OCC2=NCCN2)nc1", "pEC50", "< 4.00"],
  ["CCN(CC)C(=O)c1ccccc1OCC1=NCCN1", "pEC50", "< 5.30"],
  ["Cc1ccc(-c2ccccc2OCC2=NCCN2)s1", "pEC50", "< 4.00"],
  ["c1ccc(-c2ccoc2)c(OCC2=NCCN2)c1", "pEC50", 8.30],
  ["c1ccc(-c2ncc[nH]2)c(OCC2=NCCN2)c1", "pEC50", "< 4.00"]
]}

Give the measured pEC50 of c1ccc(-c2ccncc2)c(OCC2=NCCN2)c1 .
< 4.00

For the compound shown here, Cc1cnsc1-c1ccccc1OCC1=NCCN1 , give the reported pEC50.
< 4.00

Look up pEC50: c1ccc(-c2ccncn2)c(OCC2=NCCN2)c1
< 4.00

###

target: Alpha-1D adrenergic receptor (Homo sapiens, UniProt P25100); assay: Activation of recombinant human adrenergic, alpha-1D receptor expressed in rat-1 fibroblasts assayed via calcium mobilization through Gq coupled PLC pathway
Sequence (P25100 whole entry): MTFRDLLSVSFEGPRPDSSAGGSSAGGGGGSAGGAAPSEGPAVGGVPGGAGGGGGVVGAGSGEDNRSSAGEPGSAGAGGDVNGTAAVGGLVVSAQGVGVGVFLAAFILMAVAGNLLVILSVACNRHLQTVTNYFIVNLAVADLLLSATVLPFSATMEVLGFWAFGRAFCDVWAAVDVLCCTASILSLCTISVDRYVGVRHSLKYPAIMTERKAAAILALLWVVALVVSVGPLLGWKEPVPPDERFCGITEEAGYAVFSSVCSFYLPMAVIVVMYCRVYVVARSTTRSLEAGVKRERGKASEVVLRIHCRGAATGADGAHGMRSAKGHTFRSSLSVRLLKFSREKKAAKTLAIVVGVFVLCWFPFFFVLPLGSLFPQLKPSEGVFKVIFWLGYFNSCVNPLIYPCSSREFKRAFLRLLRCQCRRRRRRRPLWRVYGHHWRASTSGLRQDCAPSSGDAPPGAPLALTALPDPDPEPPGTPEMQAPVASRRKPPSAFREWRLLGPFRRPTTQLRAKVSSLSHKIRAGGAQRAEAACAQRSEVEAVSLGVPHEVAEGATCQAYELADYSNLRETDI
pEC50: −log10 of the molar value.
measure name: pEC50

{"columns": ["chemical smiles", "pEC50"],
 "data": [
  ["c1ccc(-c2ccsc2)c(OCC2=NCCN2)c1", 7.90]
]}

// moving on: another record for pEC50
Can you look up the measured pEC50 of c1cnc(-c2ccccc2OCC2=NCCN2)nc1 for me?
< 4.00
